tested on: HPV-Lucia (HPV16 pseudovirus carrying Lucia); settings: 4 h
Bridge positions count the residues as written; N and C are the ends. Ends that are not written are not given here. * marks the point of attachment. Stearoyl = CCCCCCCCCCCCCCCCCC(=O)*
measuredQuantity: IC50 (nM)
Kindly answer with a numeric value in nM, unit omitted.

Exam item: Looking for the measured IC50 of ASATQLYKTCKQAGTCPPDIIPKVEGKTIADQILQYGSMGVFFK(Stearoyl) (disulfide 10-16) [13-55st] , can you help?
Marked response: 100
